- target_of_assay: NTT1 (plastid / chloroplast ATP/ADP transporter 1) (Arabidopsis thaliana, UniProt Q39002, E246K)
- Construct: gene AATP1; mature form lacking first 79 residues (transit peptide), N-terminal His-tag, C-terminal StreptagII; E. coli; purified in LAPAO; monomers and dimers
- Sequence (Q39002 80-624 E246K): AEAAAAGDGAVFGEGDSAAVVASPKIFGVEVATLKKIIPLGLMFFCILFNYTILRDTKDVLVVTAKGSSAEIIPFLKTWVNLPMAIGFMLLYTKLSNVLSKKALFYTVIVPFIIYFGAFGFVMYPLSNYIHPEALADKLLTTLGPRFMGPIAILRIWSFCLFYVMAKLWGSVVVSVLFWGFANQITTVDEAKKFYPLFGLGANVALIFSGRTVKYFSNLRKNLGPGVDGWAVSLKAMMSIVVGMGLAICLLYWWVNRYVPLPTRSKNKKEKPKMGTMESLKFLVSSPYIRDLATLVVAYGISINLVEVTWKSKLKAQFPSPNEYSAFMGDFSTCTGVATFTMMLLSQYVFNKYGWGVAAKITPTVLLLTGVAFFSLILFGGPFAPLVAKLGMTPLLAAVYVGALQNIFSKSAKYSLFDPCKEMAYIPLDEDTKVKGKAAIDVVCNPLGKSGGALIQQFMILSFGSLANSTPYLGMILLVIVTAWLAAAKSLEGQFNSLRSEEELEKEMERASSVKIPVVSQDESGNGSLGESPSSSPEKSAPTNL
- protocol_summary: tryptophan fluorescence variation
- Assay type: binding
- reported_conditions: read-out: Affinity for ATP

{"chemical_smiles": "Nc1ncnc2c1ncn2[C@@H]1O[C@H](COP(=O)(O)OP(=O)(O)OP(=O)(O)O)[C@@H](O)[C@H]1O", "units_label": "nM", "Kd": 1900}

* * *

- target_of_assay: NTT1 (plastid / chloroplast ATP/ADP transporter 1) (Arabidopsis thaliana, UniProt Q39002, K528E)
- Construct: mature form lacking first 79 residues (transit peptide), N-terminal His-tag, C-terminal StreptagII; E. coli; purified in LAPAO; monomers and dimers
- protocol_summary: tryptophan fluorescence variation
- reported_conditions: read-out: Affinity for ADP
pKd: −log10 of the molar value.

{"compound": "Nc1ncnc2c1ncn2[C@@H]1O[C@H](COP(=O)(O)OP(=O)(O)O)[C@@H](O)[C@H]1O [ADP]", "pKd": 4.72}
